CC50 by entry:
# Procedure text: in vitro
# Type: cell-based
# Settings: African green monkey, CC50

{"columns": ["Compound", "Readout units", "Qual", "CC50"],
 "data": [
  ["COc1cc(NC(C(=O)c2c[nH]c3cc(OC)ccc23)c2ccc(F)cc2OC)cc(S(C)(=O)=O)c1 (racemic) [Compound 5]", "µM", "=", 24],
  ["COc1cc(NC(C(=O)c2c[nH]c3cc(OC)ccc23)c2ccc(F)cc2OC)cc(S(C)(=O)=O)c1 (single isomer, unassigned) [Enantiomer 5A]", "µM", "=", 24],
  ["COc1cc(NC(C(=O)c2c[nH]c3cc(F)c(F)cc23)c2ccc(F)cc2OC)cc(S(C)(=O)=O)c1 (racemic) [Compound 7]", "µM", "=", 5],
  ["COc1cc(NC(C(=O)c2c[nH]c3c(F)c(F)ccc23)c2ccc(F)cc2OC)cc(S(C)(=O)=O)c1 (racemic) [Compound 13]", "µM", "=", 7.6],
  ["COc1cc(NC(C(=O)c2c[nH]c3cc(C)c(F)cc23)c2ccc(F)cc2OC)cc(S(C)(=O)=O)c1 (racemic) [Compound 9]", "µM", "=", 8.8],
  ["COc1cc(NC(C(=O)c2c[nH]c3cc(OC)c(F)cc23)c2ccc(F)cc2OC)cc(S(C)(=O)=O)c1 (racemic) [Compound 11]", "µM", "=", 12],
  ["COc1cc(NC(C(=O)c2c[nH]c3c(C)c(F)ccc23)c2ccc(F)cc2OC)cc(S(C)(=O)=O)c1 (single isomer, unassigned) [Enantiomer 2A]", "µM", "=", 6.1],
  ["COc1cc(NC(C(=O)c2c[nH]c3cc(OC)c(Cl)cc23)c2ccc(F)cc2OC)cc(S(C)(=O)=O)c1 (racemic) [Compound 16]", "µM", "=", 8.8],
  ["COc1cc(NC(C(=O)c2c[nH]c3ccc(C(F)(F)F)cc23)c2ccc(F)cc2OC)cc(S(C)(=O)=O)c1 (racemic) [Compound 17]", "µM", "=", 3.5],
  ["COc1cc(NC(C(=O)c2c[nH]c3c(Cl)c(OC)ccc23)c2ccc(F)cc2OC)cc(S(C)(=O)=O)c1 (single isomer, unassigned) [Enantiomer 12A]", "µM", ">", 25],
  ["COc1cc(NC(C(=O)c2c[nH]c3cc(Cl)ccc23)c2ccc(F)cc2OC)cc(S(C)(=O)=O)c1 (racemic) [Compound 4]", "µM", "=", 6.6],
  ["COc1cc(NC(C(=O)c2c[nH]c3c(C)cc(F)cc23)c2ccc(F)cc2OC)cc(S(C)(=O)=O)c1 (racemic) [Compound 8]", "µM", "=", 7.6],
  ["COc1cc(NC(C(=O)c2c[nH]c3ccc(OC(F)(F)F)cc23)c2ccc(F)cc2OC)cc(S(C)(=O)=O)c1 (racemic) [Compound 18]", "µM", "=", 3.3]
]}
